- assay_protocol: soluble on expression in E. coli; label from the status in PepcDB or PDB records
parameter: soluble on expression in E. coli

[
  {
    "sequence_entry": "MTLNKTDRIVITLGKQIVHGKYVPGSPLPAEAELCEEFATSRNIIREVFRSLMAKRLIEMKRYRGAFVAPRNQWNYLDTDVLQWVLENDYDPRLISAMSEVRNLVEPAIARWAAERATSSDLAQIESALNEMIANNQDREAFNEADIRYHEAVLQSVHNPVLQQLSIAISSLQRAVFERTWMGDEANMPQTLQEHKALFDAIRHQDGDAAEQAALTMIASSTRRLKEIT",
    "data_value": "not soluble"
  },
  {
    "sequence_entry": "MSNPLAVDVPTFTKLHNVAQWLSQQPPSPRLFDQKENGFSQNFQPFLKTVNSCTIPDDLHEEMMRLKRKENAFKTALCKTFQLTRACSYGEQCKFAHSVEELQLKQKNRGVNHPKYKTVLCDNFSRTGHCKYGTKCQFIHRAVEPTPAQNPLMPQFSSWFAPSSGLSREFLDNFGASASSSSTDFS",
    "data_value": "not soluble"
  },
  {
    "sequence_entry": "MAKKVFIGATGQNCGKTTMSVSLMHLARQKYQRVGFIKPIGPKIEMYNGLTVDMDAILMARTFGLEEDLALMNPVPLPKNFTRDYLSGKFDCHTLKKKIVEAFEILDQSYDFLIIEGAGHCGVGSVIGLSNACVAHMLGAPVIVVTDSGIGSAIDAVHLNLALYEKEEADVRMVIVNKLRSDKRDSILGFLRRGFPGRSLQVTGGFNYSPVLANPTLSHIGKLLNLPVHGDADGHSRIIHHIHLGAASSQRVVDALEDATLLVLTSSRDELIVTLSSLYHIPSYRDKIAGLVIAGHMPVSEITQQILDDSMIPYIRVHDSTARVFTTLMEDVSKITAEDQEKLNWIRANAENEIDFEAIDALLLEHHHHHH",
    "data_value": "not soluble"
  },
  {
    "sequence_entry": "MEKKPWEEDISIEEFKKSLNKDKITNLIIKRRWNKGKSTYHLSFNGDFEVVTKKPSTKYVTHKQLDQKLKEFKQDLMVELHDTFATKADLRDSEARINQKLEALVQVVLLHGEQINKLTQIVEKQGEQIRELQVEQKAQRQEFNARMDRLENLLVESIESTNKRFDSIEGRLDSMDSRLDSMENRLDSIEGRLDSVEGRLDSVEGRLDSMENRLDSMETRLDKIDPPK",
    "data_value": "soluble"
  },
  {
    "sequence_entry": "MGSDKIHHHHHHMKICLVSSMHPPHDKRVFDKEAVTLSSNGYKVLHLCPGTASDSGVFNDVEIVPYCRPSGIKGRLLQIFQLYRMANKINADVYHCNEVDSWFVGVLLKILRKKLCVFDVHEHYPSTFAESRFPKWIQPAVSSLVKLIFRLFLPFTDRLVLAKKSVSDDFPNSDSKKVLVRNFTPLSGINFTGVREVVPKGSDVTLIHLGLFGKIRGWPQTLEALKTMKQKNVRLVVIGDFNDGSRADFDSVVSAYGLNDRVVVYDWMPFEDAFKHLMQAHIGLVVFQPGILNHVYAMPHKMFDYMAAGMAVICPEFAMEVAPFVKEAKCGLLVDTANPADLAKKLDELVSSPDLIHEMGVRAQKAVQQHYNWEAEAKHLIQMYKELEELQ",
    "data_value": "not soluble"
  },
  {
    "sequence_entry": "MSLSSLEGQENSFTINSVDMKSLPDWTVQNGKNLTLQCFADVSTTSHVKPQHQMLFYKDDVLFYNISSMKSTESYFIPEVRIYDSGTYKCTVIVNNKEKTTAEYQLLVEGVPSPRVTLDKKEAIQGGIVRVNCSVPEEKAPIHFTIEKLELNEKMVKLKREKNSRDQNFVILEFPVEEQDRVLSFRCQARIISGIHMQTSESTKSELVTVTESFSTPKFHISPTGMIMEGAQLHIKCTIQVTHLAQEFPEIIIQKDKAIVAHNRHGNKAVYSVMAMVEHSGNYTCKVESSRISKVSSIVVNITELFSKPELESSFTHLDQGERLNLSCSIPGAPPANFTIQKEDTIVSQTQDFTKIASKSDSGTYICTAGIDKVVKKSNTVQIVVCEMLSEGHHHHHH",
    "data_value": "not soluble"
  },
  {
    "sequence_entry": "MSELIIYNGKVYTEDGKIDNGYIHVKDGQIVAIGEVDDKAAIDNDTTNKIQVIDAKGHHVLPGFIDIHIHGGYGQDAMDGSYDGLKYLSENLLSEGTTSYLATTMTQSTDKIDNALTNIAKYEAEQDVHNAAEIVGIHLEGPFISENKVGAQHPQYVVRPFIDKIKHFQETANGLIKIMTFAPEVEGAKEALETYKDDIIFSIGHTVATYEEAVEAVERGAKHVTHLYNAATPFQHREPGVFGAAWLNDALHTEMIVDGTHSHPASVAIAYRMKGNERFYLITDAMRAKGMPEGEYDLGGQKVTVQSQQARLANGALAGSILKMNHGLRNLISFTGDTLDHLWRVTSLNQAIALGIDDRKGSIKVNKDADLVILDDDMNVKSTIKQGKVHTFS",
    "data_value": "not soluble"
  },
  {
    "sequence_entry": "MGHHHHHHSHKWELCPVTIISWLNLFLQVDALKDAPKVLLPQYSQETFIQIAQLLDLCILAIDSLEFQYRILTAAALCHFTSIEVVKKASGLEWDSISECVDWMVPFVNVVKSTSPVKLKTFKKIPMEDRHNIQTHTNYLAMLEEVNYINTFRKGGQLSPVCNGGIMT",
    "data_value": "not soluble"
  },
  {
    "sequence_entry": "NAIMDLQTRNTRGLSTLVVRDIGELMMAGDMAVIERYVADVRGKGAVLDLRIYDAAGRPAGKKQDAPDGEVQAALTSGATAEKRHKVDGRHVLSFIVPLANEVRCQSCHEQGARFNGAMLLTTSLEEGYAGARN",
    "data_value": "soluble"
  },
  {
    "sequence_entry": "MAHHHHHHMDREDDKKNKFPFTQNNCVVVRSKLDRKNISKMKLSDEQVTANEEITKSVLLKEVNMQDAYDQIGKNANDFSRIYNLFERELLNKSNIKNVYINGIKKNIIVDDGHMKTKVEKKSLKLIDEIHLTYKKRPIILIEKESSNHIINRNNVESFFVHNCLDNSGANRKGTHAASGGGEGAVTGPYNSIPIIYKMFNKKKSIKFSFIENDQISKLTETDWKCVIAVIIKSKESLKDILNEYPFEIPTALFQPFKSFFFMFNDVIIPSDLLTGGNVDIIRLSRDKRKEDYLAVNKFWTNIEKFILQRRDKSCYTRKKKF",
    "data_value": "not soluble"
  },
  {
    "sequence_entry": "MARLNITFSPQAFEDYKYFQQNDKKMVKKINELLKSIDRNGALEGIGKPEKLKSNLTGYYSRRINHEHRLVYTVDDNHIKIASCKYHY",
    "data_value": "not soluble"
  }
]
